- ASSAYED_SYSTEM: T1, IL-1beta (UniProt P01584 117-269)
- T1 construct: also called IL-1β
- PROTOCOL_TEXT: Biacore
# fold difference in affinity vs parental annotations

BINDER | fold difference in affinity vs parental (fold)
XPA23 Fab, heavy chain Y101Q (Fab, V domains shown) VH: EVQLLESGGGLVQPGGSLRLSCAASGFTFSKYFMFWVRQAPGKGLEWVSVISPSGGMTRYADSVKGRFTISRDNSKNTLYLQMNSLRAEDTAVYYCARVGQGGNSDYWGQGTLVTVSS VL: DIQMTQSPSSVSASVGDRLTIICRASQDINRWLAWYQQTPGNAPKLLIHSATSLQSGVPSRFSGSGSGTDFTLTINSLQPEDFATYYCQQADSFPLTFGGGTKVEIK | 0.06
XPA23 Fab, heavy chain S105Q (Fab, V domains shown) VH: EVQLLESGGGLVQPGGSLRLSCAASGFTFSKYFMFWVRQAPGKGLEWVSVISPSGGMTRYADSVKGRFTISRDNSKNTLYLQMNSLRAEDTAVYYCARVGYGGNQDYWGQGTLVTVSS VL: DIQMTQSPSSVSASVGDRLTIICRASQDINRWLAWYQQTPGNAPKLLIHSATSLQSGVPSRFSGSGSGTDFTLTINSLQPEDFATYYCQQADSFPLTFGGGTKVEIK | 0.98
